TARGET: p38a activated, mitogen-activated protein kinase-activated protein kinase 2 (MAPKAP-K2 or MK2) enzyme (Homo sapiens, UniProt P49137)
Sequence (P49137 whole entry): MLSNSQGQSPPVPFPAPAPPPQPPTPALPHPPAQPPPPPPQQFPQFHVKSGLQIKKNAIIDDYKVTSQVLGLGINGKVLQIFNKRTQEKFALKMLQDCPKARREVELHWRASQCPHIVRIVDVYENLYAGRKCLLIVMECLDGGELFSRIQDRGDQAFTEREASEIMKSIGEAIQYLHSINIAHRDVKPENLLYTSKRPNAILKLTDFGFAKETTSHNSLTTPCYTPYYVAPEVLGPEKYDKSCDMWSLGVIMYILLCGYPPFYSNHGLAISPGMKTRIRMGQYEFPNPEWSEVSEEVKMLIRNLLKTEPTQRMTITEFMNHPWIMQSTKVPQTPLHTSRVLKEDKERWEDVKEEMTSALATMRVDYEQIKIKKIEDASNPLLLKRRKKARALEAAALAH
METHOD_SUMMARY: MK2 OMNIA biochemical assay (AssayQuant continuous-read kinase assay)
ASSAY_CONDITIONS: [MK-2]=0.05 nM, [ATP]=100 μM, [AQT0425]=10 μM
pIC50: −log10 of the molar value.
RECORDED_METRIC: pIC50

Qu. Form field: reported pIC50 of C[C@@H]1CNc2c(sc3ccc4nc(-c5ccc(C(=O)NCCN6CCN(c7ccc8c(C9CCC(=O)NC9=O)nn(C)c8c7)CC6)cc5F)ccc4c23)C(=O)N1 (stereo partly drawn)
Ans. > 6.82

Qu. Now this one: C[C@@H]1CNc2c(sc3ccc4nc(-n5cc(C6CN(CCN7CCN(c8ccc(C9CCC(=O)NC9=O)cc8)CC7)C6)nn5)ccc4c23)C(=O)N1 (stereo partly drawn)
Ans. > 6.82

Qu. Now this one: C[C@@H]1COc2c(sc3ccc4nc(C#CC5CCN(C(=O)C(=O)N6CCN(c7ccc(C8CCC(=O)NC8=O)cc7)CC6)CC5)ccc4c23)C(=O)N1 (stereo partly drawn)
Ans. 6.00 to 6.30
